This section presents binders with their documented pKd values.
Biological target: T1, GFP-9S library array, motif 4 ND N98F;D124Q (synthetic construct, N98F;D124Q)
T1 chain: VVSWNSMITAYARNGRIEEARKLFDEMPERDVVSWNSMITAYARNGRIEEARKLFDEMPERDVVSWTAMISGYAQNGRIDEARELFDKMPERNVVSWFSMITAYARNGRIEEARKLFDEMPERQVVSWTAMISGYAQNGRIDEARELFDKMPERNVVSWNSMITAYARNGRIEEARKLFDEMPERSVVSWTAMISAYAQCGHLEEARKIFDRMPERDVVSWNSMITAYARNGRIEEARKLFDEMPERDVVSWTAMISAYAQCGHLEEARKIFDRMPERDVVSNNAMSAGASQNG
Experiment: high-throughput RNA pulldown from lysate on Ni-NTA beads; HRP: 50 mM Tris pH 8, 150 mM NaCl, 1 mM beta-mercaptoethanol, 50 ug/ml BSA, 3 ug/ml yeast RNA, 0.5% heparin; ITC and FP: Tris pH 8, 200 mM KCl, 5% glycerol; MST: 50 mM Tris pH 8, 200 mM NaCl, 1 mM DTT, BSA, heparin, 0.05% Tween 20
Details: tags: N-terminal His-eGFP; label: 5' IRDye 800CW
pKd: −log10 of the molar value.
observationType: pKd

{"columns": ["binder", "recordedMeasurement"],
 "data": [
  ["AUUAAACGUGA (ssRNA) [IR-rpoA-A]", 6.38],
  ["AUUAUACGUGA (ssRNA) [IR-rpoA-U]", 6.33]
]}
